Reported values of pIC50 for individual entries
Molecular target: His-GST-TVMV-hRIPK1(1-324) (Homo sapiens)
Construct: The coding region of human RIPK1(1-324) flanked by NdeI site at 5′ end; made in house; host or cells: Spodoptera frugiperda Sf9 insect cells (baculovirus, Bac-to-Bac)
Sequence (Q13546 1-324): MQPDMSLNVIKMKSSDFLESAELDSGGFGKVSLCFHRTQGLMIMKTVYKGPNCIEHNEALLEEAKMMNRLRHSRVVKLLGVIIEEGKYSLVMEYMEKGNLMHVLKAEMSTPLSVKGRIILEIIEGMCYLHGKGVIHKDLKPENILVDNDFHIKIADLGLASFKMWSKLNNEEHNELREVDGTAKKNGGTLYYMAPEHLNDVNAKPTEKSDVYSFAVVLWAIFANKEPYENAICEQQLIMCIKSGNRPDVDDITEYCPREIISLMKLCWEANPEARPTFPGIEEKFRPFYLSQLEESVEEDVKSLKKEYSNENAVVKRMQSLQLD
Test: biochemical
Assay type: binding
Conditions: HTRF probe displacement, 1 h at rt; read-out: RIPK1 IC50
Worth noting: pIC50 values are minus log10 of concentrations stated in mol/L.

These solved cases illustrate the format of a correct answer.
[[record]]
molecule = "Nc1nc2cc(-c3ccc(Cl)c(C(=O)NCC(F)(F)C(O)c4cccc(Cl)n4)c3F)ccn2n1 (single isomer, unassigned) [Example 263]"
parameter = "pIC50"
experimental_value = 7.68

[[record]]
molecule = "Cc1ccc(-c2ccn3nc(N)nc3c2)c(F)c1C(=O)NCCC(O)c1ccc(Cl)cc1F (single isomer, unassigned) [Example 68]"
parameter = "pIC50"
experimental_value = 8.44

[[record]]
molecule = "Cc1ccc(-c2ccn3nc(N)nc3c2)c(F)c1C(=O)NC(C)CC(O)c1ccc(F)cc1 (single isomer, unassigned) [Example 38]"
parameter = "pIC50"
experimental_value = 8.33

[[record]]
molecule = "Cc1ccc(-c2ccn3nc(N)nc3c2)c(F)c1C(=O)NCCC(O)c1ccc(F)c(F)c1 (single isomer, unassigned)"
parameter = "pIC50"
experimental_value = 8.36

[[record]]
molecule = "Cc1ccc(-c2ccn3nc(N)nc3c2)c(F)c1C(=O)NCC(F)(F)C(O)c1ccc(F)c(F)c1 (single isomer, unassigned) [Example 198]"
parameter = "pIC50"
experimental_value = 8.19


Read the next record carefully.
[Q] What value of pIC50 on His-GST-TVMV-hRIPK1(1-324) (Homo sapiens) does Nc1nc2cc(-c3ccc(Cl)c(C(=O)NCC(F)(F)C(O)c4ccc(F)cc4F)c3F)ccn2n1 (single isomer, unassigned) [Example 179] have?
[A] 9.52
